target: catalytic domain of human MMP-9 (cdMMP-9) (human) (UniProt P14780); assay: FRET peptide substrate inhibition assay, K1=IC50/(S/Km+1)
Mark rule met for Ki under 70 nM, rule not met if at or over.

Examples from the recorded data:
binder	assignedCategory
anti-MMP9 Fab L13 (Fab, V domains shown) VH: EVQLVESGGGLVQPGGSLRLSCAASGFNISSSYIHWVRQAPGKGLEWVASISSSSGYTSYADSVKGRFTISADTSKNTAYLQMNSLRAEDTAVYYCARKYMVFGTRMGWVEHTDFAGQGYYAMDYWGQGTLVTVSS VL: DIQMTQSPSSLSASVGDRVTITCRASQSVSSAVAWYQQKPGKAPKLLIYSASSLYSGVPSRFSGSRSGTDFTLTISSLQPEDFATYYCQQYAALITFGQGTKVEIKR	rule not met
anti-MMP9 Fab H3 (Fab, V domains shown) VH: EVQLVESGGGLVQPGGSLRLSCAASGFNIYSSSMHWVRQAPGKGLEWVAYIYSSYGYTYYADSVKGRFTISADTSKNTAYLQMNSLRAEDTAVYYCARRFEPGLLKRNKRWISYTLCEAGYGMDYWGQGTLVTVSS VL: DIQMTQSPSSLSASVGDRVTITCRASQSVSSAVAWYQQKPGKAPKLLIYSASSLYSGVPSRFSGSRSGTDFTLTISSLQPEDFATYYCQQASHLITFGQGTKVEIKR	rule met
anti-MMP9 Fab H25 (Fab, V domains shown) VH: EVQLVESGGGLVQPGGSLRLSCAASGFNIYSSSMHWVRQAPGKGLEWVASIYSYYGYTYYADSVKGRFTISADTSKNTAYLQMNSLRAEDTAVYYCARCKLYTSYMIPVGSDSVNRCMSSYGMDYWGQGTLVTVSS VL: DIQMTQSPSSLSASVGDRVTITCRASQSVSSAVAWYQQKPGKAPKLLIYSASSLYSGVPSRFSGSRSGTDFTLTISSLQPEDFATYYCQQGGGASLITFGQGTKVEIKR	rule not met
anti-MMP9 IgG L13 (antibody, V domains shown) VH: EVQLVESGGGLVQPGGSLRLSCAASGFNISSSYIHWVRQAPGKGLEWVASISSSSGYTSYADSVKGRFTISADTSKNTAYLQMNSLRAEDTAVYYCARKYMVFGTRMGWVEHTDFAGQGYYAMDYWGQGTLVTVSS VL: DIQMTQSPSSLSASVGDRVTITCRASQSVSSAVAWYQQKPGKAPKLLIYSASSLYSGVPSRFSGSRSGTDFTLTISSLQPEDFATYYCQQYAALITFGQGTKVEIKR	rule not met

Please turn your attention to the following entry.
query: Confirm or reject: Ki of anti-MMP9 IgG H3 (antibody, V domains shown) VH: EVQLVESGGGLVQPGGSLRLSCAASGFNIYSSSMHWVRQAPGKGLEWVAYIYSSYGYTYYADSVKGRFTISADTSKNTAYLQMNSLRAEDTAVYYCARRFEPGLLKRNKRWISYTLCEAGYGMDYWGQGTLVTVSS VL: DIQMTQSPSSLSASVGDRVTITCRASQSVSSAVAWYQQKPGKAPKLLIYSASSLYSGVPSRFSGSRSGTDFTLTISSLQPEDFATYYCQQASHLITFGQGTKVEIKR lies strictly below 70 nM
result: rule met
